System: rodent lifetime carcinogenesis bioassay, tumor incidence TD50
Test: carcinogenic potency in animals, long-term in vivo studies, CPDB compilation (AID 1745844)
Conditions: rat; strain F344/DuCrj; males; in feed; site: skin; lesion: sebaceous adenoma; dosed 56 weeks; study length 56 weeks
recorded.endpoint: TD50 (mg/kg/day)
A number alone suffices; assume mg/kg/day.

Task: Entry "Cc1cnc2ccc3c(nc(N)n3C)c2n1" has what TD50?
Output: 58.8

###

Test system: rodent lifetime carcinogenesis bioassay, tumor incidence TD50
Assay: carcinogenic potency in animals, long-term in vivo studies, CPDB compilation (AID 1745844)
Settings: rat; strain Fischer 344; males; in feed; site: large intestine; lesion: several types; types named in the paper; dosed 78 weeks; study length 78 weeks
recorded.endpoint: TD50

Task: Entry "O=C1c2ccccc2C(=O)c2c(O)cccc21" has what TD50?
Output: 222 mg/kg/day

src = PubChem BioAssay AID1745844
